# Test system: HeLa Kyoto;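 further: HeLa Kyoto cells synchronized by double thymidine or nocodazole block, proteins quantified by TMT10plex mass spectrometry, three independent biological replicates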
# ASSAY_SUMMARY: melting temperature (median over replicates), in situ; higher = more thermally stable
# MEASUREMENT_SETUP: cell cycle stage: mitosis

{"SUBSTANCE": "MEADASVDMFSKVLEHQLLQTTKLVEEHLDSEIQKLDQMDEDELERLKEKRLQALRKAQQQKQEWLSKGHGEYREIPSERDFFQEVKESENVVCHFYRDSTFRCKILDRHLAILSKKHLETKFLKLNVEKAPFLCERLHIKVIPTLALLKDGKTQDYVVGFTDLGNTDDFTTETLEWRLGSSDILNYSGNLMEPPFQNQKKFGTNFTKLEKKTIRGKKYDSDSDDD [TXNDC9]", "melting temperature [°C]": 52.7}
{"SUBSTANCE": "MGLAGVCALRRSAGYILVGGAGGQSAAAAARRYSEGEWASGGVRSFSRAAAAMAPIKVGDAIPAVEVFEGEPGNKVNLAELFKGKKGVLFGVPGAFTPGCSKTHLPGFVEQAEALKAKGVQVVACLSVNDAFVTGEWGRAHKAEGKVRLLADPTGAFGKETDLLLDDSLVSIFGNRRLKRFSMVVQDGIVKALNVEPDGTGLTCSLAPNIISQL [PRDX5]", "melting temperature [°C]": 55.9}
{"SUBSTANCE": "MAAGAAEAAVAAVEEVGSAGQFEELLRLKAKSLLVVHFWAPWAPQCAQMNEVMAELAKELPQVSFVKLEAEGVPEVSEKYEISSVPTFLFFKNSQKIDRLDGAHAPELTKKVQRHASSGSFLPSANEHLKEDLNLRLKKLTHAAPCMLFMKGTPQEPRCGFSKQMVEILHKHNIQFSSFDIFSDEEVRQGLKAYSSWPTYPQLYVSGELIGGLDIIKELEASEELDTICPKAPKLEERLKVLTNKASVMLFMKGNKQEAKCGFSKQILEILNSTGVEYETFDILEDEEVRQGLKAYSNWPTYPQLYVKGELVGGLDIVKELKENGELLPILRGEN [GLRX3]", "melting temperature [°C]": 49.9}
{"SUBSTANCE": "RALGAPA1", "melting temperature [°C]": 50.8}
